tested on: HCT-116; assay: NCI tumour cell line growth inhibition, 48 h
The source made the active and inactive calls. Cut-off read from the data, not from the text of the source: active = GI50 up to about 1.1 µM and inactive = higher.
Use one of these outcomes when replying: active, inactive

Dear colleague, could you share the recorded outcome for `Cc1ccc(S(=O)(=O)NC(=O)C2C(=O)CC3(CCCCC3)CC2=O)cc1` when you have a moment?
inactive

Called result for C[Si]1(C)C(c2ccccc2)=CC2C(c3ccccc3)(c3ccccc3)OC21c1ccccc1 (stereo unspecified)
inactive

Recorded call for CC(C)C1CNC2N1C(=O)C2(C)OCc1ccccc1 (stereo unspecified) ?
inactive

Name the outcome recorded for CC(C)(C)OC(=O)NC(Cc1ccc(OCc2ccccc2)cn1)C(=O)N1CCCCC1 (stereo unspecified) in the assay.
inactive

What classification did COP(=O)(OC)C(N)CCSC (stereo unspecified) end up with in this test?
inactive

Per the assay record, what outcome was assigned to `O=C1c2cccnc2S(=O)(=O)N1c1ccc(Oc2ccccc2)cc1` ?
inactive

Test call for this molecule, please: `COC(=O)c1cn(CCCCO)nn1`
inactive

Hey, what did the test say about CON(C)C(=O)C(C)NC(=O)OCc1ccccc1 (stereo unspecified) ?
inactive

For CC1CC/C(=C\c2ccc(Cl)cc2)c2nc(N)c(C#N)c(-c3ccc(Cl)cc3)c21 (stereo unspecified) , which call appears in the assay record?
inactive

###

test system: EKVX; assay: NCI tumour cell line growth inhibition, 48 h
Calls of active or inactive are those of the source. Cut-off read from the data, not from the text of the source: active = GI50 up to about 1.1 µM and inactive = higher.
GI50: recorded values

Entry `CCC1(CC)C(=O)N(C(=O)c2ccc(C)cc2)N(C(=O)c2ccc(C)cc2)C1=O` under EKVX had GI50 of 48.6 µM (inactive)

# lookup: `N#CCCN(c1ccc(/C=N/c2ccc(C(=O)O)cc2)cc1)S(=O)(=O)c1ccccc1` on EKVX, GI50 = > 100 µM (inactive)

Reported GI50 (EKVX) for entry CC(C)C1=CC(=O)C(C)(C2=NC(C)(C)CO2)c2ccccc21 (stereo not drawn) is 96.6 µM (inactive)

Short answer on EKVX for `CCN(CC)CCn1c(=O)c2ccccc2n2c3c(=O)n(C)c(=O)n(C)c3nc12` , GI50: 3.59 µM (inactive)

Assay EKVX, sample `O=[N+]([O-])c1ccc(-n2nc3ccc4nonc4c3n2)cc1` , GI50 read: 58.3 µM (inactive)

Reported EKVX GI50 for item `COc1cc(CNC(=O)CCCCCCCCCCSSCCCCCCCCCCC(=O)NCc2ccc(O)c(OC)c2)ccc1O` was > 10 µM (inactive)

Log: EKVX, compound `CC[n+]1[b-](C(C)(C)C)n(/N=C(\C)C(C)(C)C)[b-](C(C)(C)C)[n+]1CC` , GI50 = > 100 µM (inactive)

The compound `O=C(CN1CCCC1=O)CS(=O)(=O)c1ccccc1` on EKVX: GI50 was > 100 µM (inactive)

###

GI50 reference
tested on: SNB-75; test: NCI tumour cell line growth inhibition, 48 h
Active and inactive are the calls of the source. Rule as the data show it: active = GI50 up to about 1.1 µM and inactive = higher.

Worked cases, GI50 given:
Cc1ccc(/C=C2\CN(C)CC3=C2N=C(S)NC3c2ccc(C)cc2)cc1 (stereo unspecified) ... 10.2 µM (inactive)
COC(=O)C(Cc1ccccc1I)C1=CCC2(CC1)OCCO2 (stereo unspecified) ... 21.2 µM (inactive)
CC1(C)OC1COc1c2occc2cc2ccc(=O)oc12 (stereo unspecified) ... > 100 µM (inactive)
CN(C)CCCNc1ccnc2cccc([N+](=O)[O-])c12 ... 24.1 µM (inactive)
O=C1/C(=C/c2cccc(O)c2)COc2ccccc21 ... 15.5 µM (inactive)
CCOC(=O)CC(=O)NC1CC2CCC1(C)C2(C)C (stereo unspecified) ... > 100 µM (inactive)
Cc1nc(C(N)=S)sc1C(=O)CC(=O)C(=O)Nc1cccc(Cl)c1C ... > 100 µM (inactive)
COc1ccc(C2c3cc4c(cc3OC(N3CCCCC3)C2C)OCO4)cc1 (stereo unspecified) ... 35.6 µM (inactive)
NC(=O)CCC(NC(=O)C(F)(F)F)C(=O)O (stereo unspecified) ... > 100 µM (inactive)
Nc1nc(Cl)cc(NCC2(CO)CC(Cc3ccccc3)C2)n1 (stereo unspecified) ... 28.6 µM (inactive)

Record summary for `O=C1C[C@H](Sc2ccccc2)C2(OCCO2)[C@H]2ON3CCC[C@@H]3[C@@H]12` : reported GI50 = 3.66 µM (inactive)

In plain terms, `CCC1=C(C)C(=O)N/C1=C\c1[nH]c(C)c([C@H](C)CCN)c1C` has a documented GI50 of 10.1 µM (inactive)

What the record says about `O=C1CCCc2ccc3c(c21)CC1(Cc2cc4c(cc2C1)CCCC4)C3` : GI50 is 20.7 µM (inactive)

`Cc1n[nH]c(=O)n1/N=C/c1ccco1` yielded GI50 of > 100 µM (inactive)

# GI50 (compound: `Cc1ccc(/C(=C/C=C(C#N)C#N)Sc2cc(Cl)ccc2Cl)cc1` ) is 17 µM (inactive)

GI50 reading for `O=C1NC(N2CCCCC2)=N/C1=C\c1ccccc1O` : 27.9 µM (inactive)

// sample NC1C=NNC1=O (stereo unspecified) , its GI50 was > 100 µM (inactive)

Memo: `C=CCN1C(N)=C(C(N)=O)S/C1=C1/SC(=S)N(c2ccc(C)cc2)C1=O` , reported GI50: 12.6 µM (inactive)

For this compound ( CC(=O)Oc1cc(OC(C)=O)c(OC(C)=O)c2c1CC1C(=O)C3(CCc4ccccc43)C(=O)C1C2 (stereo unspecified) ), measured GI50 is 0.912 µM (active)

GI50 measured on `O=C1/C(=C/c2ccc(Cl)cc2)COc2ccc(Br)cc21` = > 100 µM (inactive)

The compound listed as `Cc1csc2[n+]1C(=O)/C(=C\c1ccc([N+](=O)[O-])cc1)S2` shows GI50 equal to 20.3 µM (inactive)

###

test system: SK-MEL-28; assay: NCI tumour cell line growth inhibition, 48 h
Active and inactive are the calls of the source. Rule as the data show it: active = GI50 up to about 1.1 µM and inactive = higher.
// reported GI50 for each item listed

COC(=O)C(Cc1ccccc1I)C1=CCC2(CC1)OCCO2 (centres undefined) ... 48.9 µM (inactive)
O=C(NC(Cc1ccccc1)(Cc1ccc(O)cn1)C(=O)O)c1ccccc1 (centres undefined) ... > 100 µM (inactive)

Lab note: `Clc1ccc(OCc2nnc3n2N=C(c2ccccc2)CS3)c(Cl)c1` gave GI50 of > 100 µM (inactive)

Looking up CC1=C(C)C2(C#N)C(=O)N3C(=NC(c4ccccc4)NC3c3ccccc3)C2(C#N)C(c2ccccc2)N1 (centres undefined) , I see its GI50 listed as > 100 µM (inactive)

Consider Cc1ccc(/C=C2\CN(C)CC3=C2N=C(S)NC3c2ccc(C)cc2)cc1 (centres undefined) . Its measured GI50 is > 100 µM (inactive)

The reported GI50 of the molecule `CC1=C2C(=O)c3ccccc3C(=O)[C@H]2[C@H]2CCO[C@H]2O1` was 24.3 µM (inactive)

###

Item-by-item account of GI50
system: 786-0; assay: NCI tumour cell line growth inhibition, 48 h
Active and inactive are the calls of the source. Rule as the data show it: active = GI50 up to about 1.1 µM and inactive = higher.

Consider the worked cases shown below.
CNc1nc(SC)nc2c1c(N)nn2C ... > 100 µM (inactive)
O=C1c2cccnc2S(=O)(=O)N1c1ccc(Oc2ccccc2)cc1 ... > 100 µM (inactive)
CC(C)(c1ccc(Oc2ccc(C#N)c(C#N)c2)cc1)c1ccc(Oc2ccc(C#N)c(C#N)c2)cc1 ... > 10 µM (inactive)

Consider the record given below.
Documented GI50 of Cc1cc(O)nc(NNC(C#N)c2ccco2)n1 (centres undefined) : > 100 µM (inactive)

###

tested on: ACHN; assay: NCI tumour cell line growth inhibition, 48 h
Activity calls are given as the source filed them. Cut-off read from the data, not from the text of the source: active = GI50 up to about 1.1 µM and inactive = higher.
Answer with one of the outcomes active, inactive

Please let me know the test result on file for `C/C(=C(/C)c1cc[n+](C)cc1)c1cc[n+](C)cc1` .
inactive

Check the results log: what was the call for `O=c1[nH]nc(Cc2ccc(Cl)cc2)n1/N=C\c1ccc(/C=N/n2c(Cc3ccc(Cl)cc3)n[nH]c2=O)cc1` ?
inactive

Which result was noted for this compound in the test: `C#C[C@@H](CCCC)OC(=O)N[C@H](C)c1ccccc1`
inactive

Could you kindly confirm the outcome this assay logged for `Cc1c(C#N)c2nnn(C)c(=O)n2c1-c1ccccc1` ?
inactive

# fetch the recorded call for `COc1cc(Nc2nc3cc(C(F)(F)F)ccc3n3cccc23)cc(OC)c1OC` here
inactive

###

test system: NCI-H23; assay: NCI tumour cell line growth inhibition, 48 h
The source made the active and inactive calls. Rule as the data show it: active = GI50 up to about 1.1 µM and inactive = higher.
measurementName: GI50

Here's what some known entries look like.
CC(=O)c1ccccc1NC(=O)C(=O)C(C(=O)c1ccccc1-c1ccccc1)C1OC(=O)c2ccccc21 (stereo not drawn) ... 16.5 µM (inactive)
CC1=Nc2ccccc2SC(c2c(Cl)cccc2Cl)C1 (stereo not drawn) ... 1.32 µM (inactive)
CC(=O)Oc1cc(OC(C)=O)c(OC(C)=O)c2c1CC1C(=O)C3(CCc4ccccc43)C(=O)C1C2 (stereo not drawn) ... 18.4 µM (inactive)
O=CC[C@H]1C(=O)C[C@@H]2CCC[C@@H]21 ... 43.7 µM (inactive)
NC(=O)c1cc(N(CCO)CCO)c([N+](=O)[O-])cc1[N+](=O)[O-] ... > 100 µM (inactive)
O=C(CSc1nc2ccccc2c2ccccc12)c1ccccc1 ... > 100 µM (inactive)
CC1=CC[C@@H]2[C@@H](CC[C@@]2(C)O)C(C)(C)[C@H]1CC[C@@H]1[C@@]2(C)CCC(=O)C(C)(C)O[C@@H]2CC[C@]1(C)O ... 34.3 µM (inactive)
Cc1cccc(N(C(=O)Nc2ccc(Cl)c(Cl)c2)C2=NCC(C)S2)c1 (stereo not drawn) ... 37.3 µM (inactive)

Short answer on NCI-H23 for COc1ccc2c(c1)N=C1CSC(c3cc([N+](=O)[O-])ccc3Cl)N1C2 (stereo not drawn) , GI50: 22.2 µM (inactive)

Entry `Nc1nc(S)c2c(N)n[nH]c2c1C(=O)Nc1ccccc1` , tested on NCI-H23, has a reported GI50 of > 100 µM (inactive)

Tested system NCI-H23; GI50 recorded for C=C1C(=O)OC2(C)CCC1CC1OC1(C)CCC=C(C)CCC2O (stereo not drawn) was > 100 µM (inactive)

Recorded GI50 for CC(CO)(Nc1ccc([N+](=O)[O-])cc1[N+](=O)[O-])C(=O)O (stereo not drawn) on NCI-H23 was 27.8 µM (inactive)

# `Cc1cc(N2CCN(C)CC2)n2nc(-c3ccc(Cl)cc3)nc2n1` with NCI-H23: GI50 is > 100 µM (inactive)

The value of GI50 recorded for `CN1CCCN2CCN(C)CCCN(CC1)CC2` when tested on NCI-H23 reads > 100 µM (inactive)

Lab note: molecule `CC1=CC[C@](C)(O)[C@@]2(C)CC[C@H]3C(=C(C)C)C(=O)C[C@]3(C)C[C@H]12` tested on NCI-H23; recorded GI50 was 34.1 µM (inactive)

Entry `O=C(/C=C/c1ccc2c(c1)OCO2)NCc1ccco1` ; assay system NCI-H23; GI50 recorded at > 100 µM (inactive)

NCI-H23 GI50 of `CS/C(=N\S(=O)(=O)c1ccc(Cl)cc1)NCCN/C(=N/S(=O)(=O)c1ccc(Cl)cc1)SC` is 48 µM (inactive)

Summary line: `O=[N+]([O-])c1cc(-c2nnc(S)[nH]2)ccc1O` , NCI-H23, reported GI50 = > 100 µM (inactive)
